For each entry below, report its pKa value.
Assay: physchem
Description: Dissociation constant, basic pKa of the compound by UV spectrophotometry

Input: GET /values?readout=pKa&item= O=C(O)CCc1ccc(Nc2c3ccccc3nc3ccccc23)cc1
Output: 7.91

Input: GET /values?readout=pKa&item= Nc1ccc2c(Nc3ccc(C(=O)O)cc3)c3ccccc3nc2c1
Output: 8.9

Input: GET /values?readout=pKa&item= O=S(=O)(O)c1ccc(Nc2c3ccccc3nc3ccccc23)cc1
Output: 6.87

Input: GET /values?readout=pKa&item= CS(=O)(=O)Nc1ccc(Nc2c3ccccc3nc3c(C(N)=O)cccc23)cc1
Output: 6.12

Input: GET /values?readout=pKa&item= CC(=O)c1ccc(Cc2c3ccccc3nc3ccccc23)cc1
Output: 6.12

Input: GET /values?readout=pKa&item= NS(=O)(=O)c1ccc(Nc2c3ccccc3nc3ccccc23)cc1
Output: 6.11

Input: GET /values?readout=pKa&item= O=C(O)c1ccccc1Nc1c2ccccc2nc2ccccc12
Output: 7.28

Input: GET /values?readout=pKa&item= NS(=O)(=O)CCc1ccc(Nc2c3ccccc3nc3ccccc23)cc1
Output: 7.43

Input: GET /values?readout=pKa&item= c1ccc(Cc2c3ccccc3nc3ccccc23)cc1
Output: 7.46

Input: GET /values?readout=pKa&item= NS(=O)(=O)Cc1ccc(Nc2c3ccccc3nc3ccccc23)cc1
Output: 7.05

Input: GET /values?readout=pKa&item= O=C(O)c1cccc(Nc2c3ccccc3nc3ccccc23)c1
Output: 7.62

Input: GET /values?readout=pKa&item= COc1cc(C(=O)O)ccc1Nc1c2ccccc2nc2ccccc12
Output: 7.41

Input: GET /values?readout=pKa&item= O=C(O)/C=C/c1ccc(Nc2c3ccccc3nc3ccccc23)cc1
Output: 7.17

Input: GET /values?readout=pKa&item= O=[N+]([O-])c1ccc(Nc2c3ccccc3nc3ccccc23)cc1
Output: 5.58

Input: GET /values?readout=pKa&item= O=C(O)Cc1ccccc1Nc1c2ccccc2nc2ccccc12
Output: 8.12

Input: GET /values?readout=pKa&item= CC(=O)Nc1ccc2c(Nc3ccc(C(=O)O)cc3)c3ccccc3nc2c1
Output: 7.42

Input: GET /values?readout=pKa&item= NC(=O)c1ccc(Nc2c3ccccc3nc3ccccc23)cc1
Output: 6.47

Input: GET /values?readout=pKa&item= Cc1cccc2c(Nc3ccc(NS(C)(=O)=O)cc3)c3ccccc3nc12
Output: 7.15

Input: GET /values?readout=pKa&item= NC(=O)Cc1ccc(Nc2c3ccccc3nc3ccccc23)cc1
Output: 7.43

Input: GET /values?readout=pKa&item= CS(=O)(=O)Nc1ccc(Nc2c3ccccc3nc3cc(I)ccc23)cc1
Output: 6.52

Input: GET /values?readout=pKa&item= NC(=O)CCc1ccc(Nc2c3ccccc3nc3ccccc23)cc1
Output: 7.63

Input: GET /values?readout=pKa&item= Brc1ccc(Cc2c3ccccc3nc3ccccc23)cc1
Output: 7

Input: GET /values?readout=pKa&item= CC(=O)Nc1ccc(Cc2c3ccccc3nc3ccccc23)cc1
Output: 7.51

Input: GET /values?readout=pKa&item= O=C(O)Cc1cccc(Nc2c3ccccc3nc3ccccc23)c1
Output: 7.82

Input: GET /values?readout=pKa&item= CS(=O)(=O)Nc1ccc(Nc2cc(N=[N+]=[N-])nc3ccccc23)cc1
Output: 7

Input: GET /values?readout=pKa&item= COc1cc(NS(C)(=O)=O)ccc1Nc1c2ccccc2nc2ccccc12
Output: 7.43

Input: GET /values?readout=pKa&item= N#Cc1ccc(Cc2c3ccccc3nc3ccccc23)cc1
Output: 5.93

Input: GET /values?readout=pKa&item= O=S(=O)(O)CCc1ccc(Nc2c3ccccc3nc3ccccc23)cc1
Output: 7.77

Input: GET /values?readout=pKa&item= COc1cc(NS(C)(=O)=O)ccc1Cc1c2c(nc3ccccc13)C(=N)CC=C2
Output: 6.09

Input: GET /values?readout=pKa&item= COc1cc(NS(C)(=O)=O)ccc1Cc1c2ccc([N+](=O)[O-])cc2nc2cc([N+](=O)[O-])ccc12
Output: 3.82

Input: GET /values?readout=pKa&item= COC(=O)c1ccc(Nc2c3ccccc3nc3ccccc23)cc1
Output: 6.21

Input: GET /values?readout=pKa&item= CC(=O)Nc1ccc2c(Nc3ccc(NS(C)(=O)=O)cc3)c3ccccc3nc2c1
Output: 7.34

Input: GET /values?readout=pKa&item= O=S(=O)(Nc1ccc(Cc2c3ccccc3nc3ccccc23)cc1)c1ccccc1
Output: 7.09

Input: GET /values?readout=pKa&item= O=C(O)COc1ccc(Nc2c3ccccc3nc3ccccc23)cc1
Output: 8.19

Input: GET /values?readout=pKa&item= COc1ccc(Cc2c3ccccc3nc3ccccc23)cc1
Output: 7.94

Input: GET /values?readout=pKa&item= CS(=O)(=O)Nc1cccc(Nc2c3ccccc3nc3ccccc23)c1
Output: 6.85

Input: GET /values?readout=pKa&item= COc1cc(NS(C)(=O)=O)ccc1Cc1c2ccccc2nc2cc([N+](=O)[O-])ccc12
Output: 5.72

Input: GET /values?readout=pKa&item= O=C(O)Cc1ccc(Nc2c3ccccc3nc3ccccc23)cc1
Output: 7.92

Input: GET /values?readout=pKa&item= O=S(=O)(O)Cc1ccc(Nc2c3ccccc3nc3ccccc23)cc1
Output: 7.64

Input: GET /values?readout=pKa&item= CNC(=O)Nc1ccc(Cc2c3ccccc3nc3ccccc23)cc1
Output: 7.77

Input: GET /values?readout=pKa&item= Nc1ccc(Cc2c3ccccc3nc3ccccc23)cc1
Output: 8.36

Input: GET /values?readout=pKa&item= COC(=O)Nc1ccc(Cc2c3ccccc3nc3ccccc23)cc1
Output: 7.64

Input: GET /values?readout=pKa&item= O=C(O)c1ccc(Nc2c3ccccc3nc3ccccc23)cc1
Output: 7.17

Input: GET /values?readout=pKa&item= CN(c1ccc(Nc2c3ccccc3nc3ccccc23)cc1)S(C)(=O)=O
Output: 6.95

Input: GET /values?readout=pKa&item= Clc1ccc(Cc2c3ccccc3nc3ccccc23)cc1
Output: 7.06

Input: GET /values?readout=pKa&item= Cc1ccc(Cc2c3ccccc3nc3ccccc23)cc1
Output: 7.72

Input: GET /values?readout=pKa&item= COc1cc(NS(C)(=O)=O)ccc1Cc1c2c(nc3ccccc13)CC(=N)C=C2
Output: 5.53
